What kon was measured for each of the following?
- Assay Target: HCV Core 134-171-TT peptide (ALRZ-9 peptide) (HCV-1)
- Protocol: SPR, captured mAb;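 also: Anti-HCV Core mAbs from hybridoma supernatants held on a rabbit anti-mouse IgG CM5 surface, peptide flowed over 3 min then 4 min dissociation, duplicate concentrations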
Write down the numeric answer in M⁻¹ s⁻¹ and omit the unit.

Q) Indicate the recorded kon value for this binder: HCV 208A-293 (antibody, V domains shown) VH: EVQLQQSGPELVKPGASVKISCKASGFTFTEYAMHWMKQSHGKSLEWIGGINPTNGDAIYNQKFKDKAKLTVDRSSSTAYMELRSLTSDDSALFYCARRELDYFPSWGQGTTLTVSS VL: DIVLTQSPASLIVSLGQRATISCRASQSVSTSRFSYVHWIQQKPGQPPKLLIKYASNLESGVPVRFSGSGSGTDFILNIHPVEEEDTATYFCQHSWEFPFTFGSGTKLEIKR
A) 2.1e+06

Q) Given HCV 208B-672 (antibody, V domains shown) VH: EVKLVESGGSLVQPGGSLKLSCAASGFNFNTYAMSWVRQTPEKRLEWVAYISNGGGNTYYVDTVKGRFTISRDNAKNTLYLRMSSLKSEDTAMYYCARHGLYWGYSMDYWGQGTSVTVSS VL: DIQMTQSPSSLSASLGERVSLTCRASQDIGGSINWLQQEPDGTIKRLIYATSSLDSGVPKRFSGSRSGSDYSLTISSLESEDFVDYYCLQYASSPPTFGGGTKLEIKR , respond with its kon.
A) 2.2e+06
